Data credit: ChEMBL document CHEMBL5030506

Molecular target: Protein arginine N-methyltransferase 6 (Homo sapiens, UniProt Q96LA8)
Sequence (Q96LA8 whole entry): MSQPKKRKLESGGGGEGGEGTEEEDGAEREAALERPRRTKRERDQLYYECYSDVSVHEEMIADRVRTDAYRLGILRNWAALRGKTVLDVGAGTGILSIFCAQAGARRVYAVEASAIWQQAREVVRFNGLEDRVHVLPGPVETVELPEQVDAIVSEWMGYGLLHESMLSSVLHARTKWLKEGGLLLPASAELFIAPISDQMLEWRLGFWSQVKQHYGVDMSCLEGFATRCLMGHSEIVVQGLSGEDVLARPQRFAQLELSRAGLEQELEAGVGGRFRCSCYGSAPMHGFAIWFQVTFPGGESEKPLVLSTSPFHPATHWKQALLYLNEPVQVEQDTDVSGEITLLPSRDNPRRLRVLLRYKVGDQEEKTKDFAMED
Assay: Inhibition of PRMT6 (unknown origin)
Endpoint Label: IC50 (µM)
The reply should be a number in µM, with the unit left off.

Problem: Item CNCCN1CCC(OCc2ccccc2)CC1 : provide IC50
Result: 0.034

====

Experiment: Inhibition of PRMT6 mutant 19 (unknown origin) using biotinylated H4(1 to 24) peptide as substrate preincubated for 20 mins in presence of [3H]SAM followed by substrate addition by scintillation proximity assay
Parameters: species or system Homo sapiens
Endpoint Label: pIC50
The read-out pIC50 is expressed as -log10 of concentration in moles per litre.

Problem: Item Cc1ccc2c(c1)[C@@H](c1ccc(F)cc1)N(C(=O)c1ccc(Br)o1)CC(=O)N2 : provide pIC50
Result: 4.77
